target.under.test: FGFR3 (UniProt P22607)
Sequence (P22607 whole entry, looked up): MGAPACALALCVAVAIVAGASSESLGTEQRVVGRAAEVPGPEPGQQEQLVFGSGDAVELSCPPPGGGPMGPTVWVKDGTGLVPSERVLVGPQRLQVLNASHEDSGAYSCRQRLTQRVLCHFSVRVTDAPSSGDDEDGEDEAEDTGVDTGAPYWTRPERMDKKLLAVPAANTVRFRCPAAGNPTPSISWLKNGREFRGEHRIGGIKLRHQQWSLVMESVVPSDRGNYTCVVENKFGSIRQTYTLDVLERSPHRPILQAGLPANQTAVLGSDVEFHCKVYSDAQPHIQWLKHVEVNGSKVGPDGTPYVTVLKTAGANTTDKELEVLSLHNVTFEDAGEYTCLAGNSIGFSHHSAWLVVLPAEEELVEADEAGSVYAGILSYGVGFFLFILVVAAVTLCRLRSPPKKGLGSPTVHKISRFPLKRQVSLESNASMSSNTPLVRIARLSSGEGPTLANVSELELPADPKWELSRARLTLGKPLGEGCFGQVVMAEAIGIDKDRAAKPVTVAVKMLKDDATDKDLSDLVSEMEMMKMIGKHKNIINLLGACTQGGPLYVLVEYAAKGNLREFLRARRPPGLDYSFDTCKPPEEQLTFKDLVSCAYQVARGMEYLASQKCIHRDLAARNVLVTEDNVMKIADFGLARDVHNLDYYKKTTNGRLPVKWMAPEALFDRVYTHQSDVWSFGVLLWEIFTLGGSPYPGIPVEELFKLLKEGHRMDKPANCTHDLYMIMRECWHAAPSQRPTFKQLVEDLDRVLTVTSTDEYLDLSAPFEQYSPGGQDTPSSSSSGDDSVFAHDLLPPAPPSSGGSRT
procedure.text: phosphorylation enrichment, bacterial display (enrichment ratio); higher = better substrate or ligand; peptides without Tyr show the background;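 further: 11-residue human phosphosite peptides and single-mutation variants displayed on the E. coli surface, counted by deep sequencing, each peptide's frequency after selection divided by its frequency in the unselected input library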;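 further: frequency after pTyr selection over input frequency; kinase dosed for 20-30% of maximal phosphorylation in three min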
Cut-off 0.6 on phosphorylation enrichment, inclusive. At or above means label 1; below means label 0.

| macromolecule.sequence | group |
| --- | --- |
| MAFDRYAAICS [OR8H2_Y123_H120Y_YF] | label 1 |
| SNKLTYGTMVF [ACOX1_Y275] | label 0 |
| RLLRGHDQYAY [HLA-B_Y137] | label 1 |
| RREWYYEVIIA [BACE1_Y260_V265A] | label 1 |
| SLNEVYTKNKT [MSH2_Y563_E562V] | label 0 |
| IHTDAYVRAMT [RPE65_Y89_R85H] | label 0 |
| DRQASYLDKVR [KRT16_Y131_L128Q] | label 0 |
| IETGKYEILTE | label 1 |
| VEEDTYTMPST [PTK2_Y407_D402V] | label 1 |
| GIYEDYVEGLR [MYL6_Y89_T85I] | label 1 |
| PGDGEYFTLQI [TP53_Y327_L323G] | label 1 |
| LQLLGYRPVYS [CHST6_Y358] | label 1 |
| LTFDEYRNISQ [ANXA3_Y216] | label 1 |

###

target.under.test: MERTK (UniProt Q12866)
Sequence (Q12866 whole entry, looked up): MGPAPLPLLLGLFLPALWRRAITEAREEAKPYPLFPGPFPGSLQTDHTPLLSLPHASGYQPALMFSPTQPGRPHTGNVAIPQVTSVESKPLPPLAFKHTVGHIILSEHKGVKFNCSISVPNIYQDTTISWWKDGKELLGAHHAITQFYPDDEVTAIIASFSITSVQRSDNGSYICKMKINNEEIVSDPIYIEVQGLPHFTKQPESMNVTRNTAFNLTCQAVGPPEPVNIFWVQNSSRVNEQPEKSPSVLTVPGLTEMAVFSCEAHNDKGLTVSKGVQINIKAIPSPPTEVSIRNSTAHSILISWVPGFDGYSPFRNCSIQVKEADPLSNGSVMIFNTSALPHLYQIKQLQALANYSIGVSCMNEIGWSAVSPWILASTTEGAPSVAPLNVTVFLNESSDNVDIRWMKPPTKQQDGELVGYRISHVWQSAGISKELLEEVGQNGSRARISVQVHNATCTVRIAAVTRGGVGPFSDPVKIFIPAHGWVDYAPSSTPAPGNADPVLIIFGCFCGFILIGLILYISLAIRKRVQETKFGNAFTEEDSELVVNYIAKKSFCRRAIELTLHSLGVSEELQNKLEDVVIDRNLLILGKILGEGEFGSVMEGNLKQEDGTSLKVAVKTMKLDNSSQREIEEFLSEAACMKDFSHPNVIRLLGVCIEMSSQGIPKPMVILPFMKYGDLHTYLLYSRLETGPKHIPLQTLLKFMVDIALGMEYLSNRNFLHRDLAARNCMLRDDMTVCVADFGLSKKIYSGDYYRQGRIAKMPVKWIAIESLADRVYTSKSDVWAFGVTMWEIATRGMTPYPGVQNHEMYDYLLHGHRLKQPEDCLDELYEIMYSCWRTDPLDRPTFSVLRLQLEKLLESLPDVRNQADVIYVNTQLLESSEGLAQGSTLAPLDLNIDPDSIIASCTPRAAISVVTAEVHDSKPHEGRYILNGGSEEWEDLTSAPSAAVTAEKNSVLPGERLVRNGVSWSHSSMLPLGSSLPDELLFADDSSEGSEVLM
procedure.text: phosphorylation enrichment, bacterial display (enrichment ratio); higher = better substrate or ligand; peptides without Tyr show the background
phosphorylation enrichment below 0.6 gives class 0; phosphorylation enrichment at or above it gives class 1.

| macromolecule.sequence | group |
| --- | --- |
| VREIRYQGGNR [VWF_Y1570] | class 0 |
| SFSGEYGGGGG [ZG16_Y30_YF] | class 0 |
| TNFPLYLRSLE [MTM1_Y71_R69P_YF] | class 0 |
| PSQRRYVFFFS [PTEN_Y174_YF] | class 1 |
| FIGCIYLYLTK [GARS1_Y414_R412C] | class 0 |
| FKGKKYKPLDL [RPL35_Y78_YF] | class 0 |
| KAIMTYVFSFY [ACTN4_Y260_S262F] | class 0 |
| LSVEIYDRREF [ITGB7_Y753_YF] | class 0 |
| YNDSAYNQQLI [ZPLD1_Y198_T197A] | class 0 |
| QGIIIYKAAFF [SLC25A4_Y187_R188K_YF] | class 0 |
| PELINYHQHFS [BTK_Y361_N365Y_YF] | class 0 |
| MSRDIYSTDFF [NTRK1_Y676_YF] | class 1 |
| AAVDEYLEFRR [FAM221A_Y17_YF] | class 0 |
| SVVVSYEPPEV [TP53_Y220_P219S] | class 0 |
| KDFETYQPFQN [CTNND2_Y1157_YF] | class 0 |
| PNRILYGDFWQ [MYH6_Y717_R721W] | class 1 |
| EKQVAYCPSGR [ROS1_Y2323_K2328R] | class 1 |
| TVEDHYFEGGI [TKT_Y563_YF] | class 0 |
| PEVSGYCHYAD [TG_Y234_C237Y] | class 0 |
| AFPVSYSSSSA [RET_Y687_G691S] | class 0 |
| DIDKIYVRTGI [PIK3CA_Y355] | class 0 |
| YRDMDYRSYPH [RBM10_Y41_R46H] | class 0 |
| RLLRGHDQYAY [HLA-B_Y137] | class 0 |
| KNDSIYVVKGN [KIT_Y823_N822I] | class 0 |
| AVIADYMFWLG [SPATA16_Y290_M286V] | class 1 |
| SSPQPYLVPFL [TAF4_Y652] | class 0 |
| RSDEDYLYREE [POR_Y573] | class 0 |
| SSQAHYRLSAF [ADAMTS9_Y100] | class 0 |
| KEKLCYVALDF [ACTA1_Y220] | class 1 |
| QDLLLYQTHSE [PKHD1_Y255_F253L] | class 1 |
| PKEQKYSFLQN [GH1_Y68] | class 1 |
| GKSFIYAAFHA [KCNT1_Y563_T562I] | class 1 |
| LVMFIDAIFGM [SCN1A_Y1684_Y1684D] | class 1 |
| SREDIYKRNIE [PDE4DIP_Y45] | class 0 |
| KVDKECEVRVR [GHR_Y226_Y226C] | class 0 |
| IDQDKYAVRFI [FLNA_Y2388] | class 0 |
| FYLGAYDRFLP [SLC22A5_Y486_V481F] | class 1 |
| PSQRHYVFFFS [PTEN_Y174_R173H_YF] | class 1 |
| DTDSSYCIPIA [GAB1_Y373_T377I] | class 1 |
| CSDPSYVKQME [CDC5L_Y464_Y459C] | class 0 |
| LDYNEYFRDLN [HPRT1_Y198] | class 0 |
| STSKTYVISRT [RBBP6_Y87] | class 0 |
| SKNYTYIWWLN [PSG4_Y271] | class 0 |
| SLNEVYTKNKT [MSH2_Y563_E562V] | class 0 |
| PLLLSYYLIKW [NUP160_Y773] | class 1 |
| GFEEAYSVFKK [PAFAH1B1_Y28_YF] | class 0 |
| MDYRSYPREYG [RBM10_Y44] | class 0 |
| LYIDSYEKDVA [PGM1_Y521] | class 1 |
| FGRTFYNQANM [MCCC2_Y196_I200N] | class 0 |
| RREWYYEVIIA [BACE1_Y260_V265A] | class 1 |
| RRNEEYCLLAS [ITK_Y198_D202A] | class 1 |
| CGQDPYIRELG [UROS_Y19] | class 0 |
| CPYNLYAEQFS [HGD_Y40_L44F] | class 1 |
| QTEAEYRFIFM [PTPN11_Y511_Q510E_YF] | class 1 |

###

target.under.test: Fyn (UniProt P06241)
Sequence (P06241 whole entry, looked up): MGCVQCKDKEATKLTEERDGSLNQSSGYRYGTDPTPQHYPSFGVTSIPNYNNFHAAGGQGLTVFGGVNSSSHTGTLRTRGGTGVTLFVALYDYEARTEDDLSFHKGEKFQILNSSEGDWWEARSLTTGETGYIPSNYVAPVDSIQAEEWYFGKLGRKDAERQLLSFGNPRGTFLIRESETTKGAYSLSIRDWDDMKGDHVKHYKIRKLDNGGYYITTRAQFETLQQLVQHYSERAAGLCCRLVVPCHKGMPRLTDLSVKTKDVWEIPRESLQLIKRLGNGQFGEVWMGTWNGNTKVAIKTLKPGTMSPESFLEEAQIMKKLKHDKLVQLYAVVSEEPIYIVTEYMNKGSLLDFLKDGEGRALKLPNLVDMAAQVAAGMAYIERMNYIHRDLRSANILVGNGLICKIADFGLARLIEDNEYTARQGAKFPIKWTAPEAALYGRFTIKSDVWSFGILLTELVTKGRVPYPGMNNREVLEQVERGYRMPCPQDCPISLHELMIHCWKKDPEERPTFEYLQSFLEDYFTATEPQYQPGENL
procedure.text: phosphorylation enrichment, bacterial display (enrichment ratio); higher = better substrate or ligand; peptides without Tyr show the background
Think of 0.5 as a floor: if phosphorylation enrichment stands on it or above, it is satisfied; beneath it, not satisfied.

| macromolecule.sequence | group |
| --- | --- |
| FETDFYQKGGK [INSR_Y1190_R1191Q_YF] | satisfied |
| SPPPAYTPMSG [ERBB4_Y1056] | not satisfied |
| GIYKDYYRYNF [PLA2G2D_Y85_S80G] | satisfied |
| CTTIDYNYMCN [TP53_Y234_H233D] | satisfied |
| FGRTFYNQANM [MCCC2_Y196_I200N] | not satisfied |
| LKLKAYRFSIS [LCT_Y974_V971L] | satisfied |
| SISLRYEGRVF [ABL1_Y167_YF] | not satisfied |
| GSESDYIVMPN [SCARB1_Y133] | satisfied |
| LFMGDYVGRGY [PPP2CA_Y86_D88G] | satisfied |
| TLSGTYQYIIA [FOXL2_Y81_I80T] | satisfied |
| RVQKRYILDNV [RCN1_Y115_F117L] | not satisfied |
| FRVAGYKTQGG [TIA1_Y383_E384K_YF] | satisfied |
| YTGDIYSNSNL [LZTR1_Y141] | satisfied |
| YQRITYHNWRH [PDE6B_Y556_R552Q] | not satisfied |
| KGEDFYCVTFH [FHL1_Y149_C153Y_YF] | satisfied |
| MDYRSYPREYG [RBM10_Y44] | not satisfied |
| IGRHAYGDQFR [IDH1_Y135_YF] | not satisfied |
| SSMNDYNPLEK [MYOC_Y479_I477N] | not satisfied |
| INQGPYENHSV [ATP6V1B1_Y462_R465H] | not satisfied |
| LSSLAYSGKDA [FXN_Y205] | satisfied |
| RLAKTYETTLE [ALB_Y377] | satisfied |
| PSQRRYVFFFS [PTEN_Y174_YF] | satisfied |
| CGQDPYIRELG [UROS_Y19] | satisfied |
| LEIETCRRLLD [KRT12_Y429_Y429C] | satisfied |

###

Here the recorded phosphorylation enrichment is given for each entry.
target.under.test: Hck (UniProt P08631)
Sequence (P08631 whole entry, looked up): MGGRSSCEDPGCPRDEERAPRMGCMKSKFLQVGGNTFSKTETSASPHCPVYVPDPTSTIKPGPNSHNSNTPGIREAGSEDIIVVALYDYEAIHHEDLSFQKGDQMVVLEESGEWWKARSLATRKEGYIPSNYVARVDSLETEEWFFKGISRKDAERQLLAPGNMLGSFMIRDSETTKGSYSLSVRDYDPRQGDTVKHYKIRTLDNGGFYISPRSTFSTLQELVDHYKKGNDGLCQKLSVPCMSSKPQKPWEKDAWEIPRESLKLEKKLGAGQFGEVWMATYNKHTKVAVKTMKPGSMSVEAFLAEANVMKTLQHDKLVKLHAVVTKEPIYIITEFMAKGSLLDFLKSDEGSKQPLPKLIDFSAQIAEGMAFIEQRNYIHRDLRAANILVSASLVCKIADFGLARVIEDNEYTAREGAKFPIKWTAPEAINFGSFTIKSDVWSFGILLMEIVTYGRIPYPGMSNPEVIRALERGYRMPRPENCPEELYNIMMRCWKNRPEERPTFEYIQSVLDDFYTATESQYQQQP
procedure.text: phosphorylation enrichment, bacterial display (enrichment ratio); higher = better substrate or ligand; peptides without Tyr show the background
observable: phosphorylation enrichment

| macromolecule.sequence | observed.result |
| --- | --- |
| GEYYRYLAEVA [YWHAG_Y133_D129E] | 1.4 |
| GQECEYPPTQD [METAP2_Y137] | 0.63 |
| SVKVFYKKCWS [EPHA7_Y202_YF] | 0.457 |
| VMIFAYLLHRG [PTEN_Y138_C136Y_YF] | 0.406 |
| TDKLFYIFTSG [SLC27A4_Y243_YF] | 0.524 |
| KFVKMYDNHQL [MYO9A_Y203_YF] | 0.424 |
| LVLIKYLPEWT [PSEN1_Y240_F237L] | 0.569 |
| GTVRDYPDFSP [ANXA3_Y15] | 0.49 |
| WLQKLYNNFVN [MYO5C_Y526] | 0.655 |
| DGTESYHTVSS [PLK1_Y462_L463H] | 0.436 |
| PSALGYSPSLH [LLGL2_Y40_R45H] | 0.432 |
| QEGPEYWDQET [HLA-A_Y83] | 0.73 |
| SECCKYKTDNP [OSMR_Y689_I691T] | 0.452 |
| GIYKDYYRYNF [PLA2G2D_Y85_S80G] | 3.32 |
